Values were extracted from ChEMBL document CHEMBL2086299.

Test: Antiproliferative activity against mouse B16-4A5 cells at 20 uM after 72 hrs by WST-8 assay
Type: functional
Just a reminder that ties go to No: only Activity strictly below 30% counts as Yes.

compound	label class
CC1(C)CC[C@]2(O)[C@H](O)C[C@]3(C)C(=CC[C@@H]4[C@@]5(C)CC[C@H](O[C@@H]6O[C@H](C(=O)O)[C@@H](O)[C@H](O[C@@H]7O[C@H](CO)[C@H](O)[C@H](O)[C@H]7O[C@@H]7O[C@H](CO)[C@@H](O)[C@H](O)[C@H]7O)[C@H]6O[C@@H]6O[C@H](CO)[C@H](O)[C@H](O)[C@H]6O)C(C)(C)[C@@H]5CC[C@]43C)[C@@H]2C1 (relative stereo)	Yes
CC(=O)O[C@@H]1[C@H](O)[C@@H](O)[C@H](O[C@H]2[C@H](O[C@H]3CC[C@]4(C)[C@H]5CC=C6[C@@H]7CC(C)(C)CC[C@]7(O)C(=O)C[C@@]6(C)[C@]5(C)CC[C@H]4C3(C)C)O[C@H](C(=O)O)[C@@H](O)[C@@H]2O[C@@H]2O[C@H](CO)[C@H](O)[C@H](O)[C@H]2O[C@@H]2O[C@H](CO)[C@@H](O)[C@H](O)[C@H]2O)O[C@@H]1CO [CAMELLIOSIDE B]	No
CC1(C)CC[C@]2(C=O)[C@H](O)C[C@]3(C)C(=CC[C@@H]4[C@@]5(C)CC[C@H](O[C@@H]6O[C@H](C(=O)O)[C@@H](O)[C@H](O[C@@H]7O[C@H](CO)[C@H](O)[C@H](O)[C@H]7O[C@@H]7O[C@H](CO)[C@@H](O)[C@H](O)[C@H]7O)[C@H]6O[C@@H]6O[C@H](CO)[C@H](O)[C@H](O)[C@H]6O)C(C)(C)[C@@H]5CC[C@]43C)[C@@H]2C1 (relative stereo)	No
CC1(C)CC[C@]2(O)C(=O)C[C@]3(C)C(=CC[C@@H]4[C@@]5(C)CC[C@H](O[C@@H]6O[C@H](C(=O)O)[C@@H](O)[C@H](O[C@@H]7O[C@H](CO)[C@H](O)[C@H](O)[C@H]7O[C@@H]7O[C@H](CO)[C@@H](O)[C@H](O)[C@H]7O)[C@H]6O[C@H]6O[C@@H](CO)[C@@H](O)[C@@H](O)[C@@H]6O)C(C)(C)C5CC[C@]43C)[C@@H]2C1 (stereo not given in full) [CAMELLIOSIDE A]	Yes

====

Recorded Activity by entry
Test: Induction of proliferation of neonatal skin fibroblasts assessed as WST-8 formazan accumulation per well at 5 uM after 48 hrs by WST-8 assay relative to control
Type: functional, Homo sapiens, Skin fibroblast
measure name: Activity (%)

compound	measure name	readout number
CC1(C)CC[C@]2(O)C(=O)C[C@]3(C)C(=CC[C@@H]4[C@@]5(C)CC[C@H](O[C@@H]6O[C@H](C(=O)O)[C@@H](O)[C@H](O[C@@H]7O[C@H](CO)[C@H](O)[C@H](O)[C@H]7O[C@@H]7O[C@H](CO)[C@@H](O)[C@H](O)[C@H]7O)[C@H]6O[C@H]6O[C@@H](CO)[C@@H](O)[C@@H](O)[C@@H]6O)C(C)(C)C5CC[C@]43C)[C@@H]2C1 (stereo partly drawn) [CAMELLIOSIDE A]	Activity	114.6
CC1(C)CC[C@]2(CO)[C@H](O)C[C@]3(C)C(=CC[C@@H]4[C@@]5(C)CC[C@H](O[C@@H]6O[C@H](C(=O)O)[C@@H](O)[C@H](O[C@@H]7O[C@H](CO)[C@H](O)[C@H](O)[C@H]7O[C@@H]7O[C@H](CO)[C@@H](O)[C@H](O)[C@H]7O)[C@H]6O[C@@H]6O[C@H](CO)[C@H](O)[C@H](O)[C@H]6O)C(C)(C)[C@@H]5CC[C@]43C)[C@@H]2C1 [CAMELLIOSIDE D]	Activity	107.6
O.O=C1O[C@H]([C@@H](O)CO)C(O)=C1OP(=O)([O-])[O-].[Mg+2]	Activity	109.2

====

Test: Induction of proliferation of neonatal skin fibroblasts assessed as protein content per well at 50 uM after 48 hrs by […] relative to control
Assay type: functional, Homo sapiens, Skin fibroblast
measure name: Activity (%)

mol smiles	measure name	readout number
CCC/C=C\C(=O)O[C@H]1CC(C)(C)C[C@H]2C3=CC[C@@H]4[C@@]5(C)CC[C@H](O[C@@H]6O[C@H](C(=O)O)[C@@H](O)[C@H](O[C@@H]7O[C@H](CO)[C@H](O)[C@H](O)[C@H]7O[C@@H]7O[C@@H](C)[C@H](O)[C@@H](O)[C@H]7O)[C@H]6O[C@@H]6O[C@H](CO)[C@@H](O)[C@H](O)[C@H]6O)C(C)(C)[C@@H]5CC[C@@]4(C)[C@]3(C)[C@@H](O)[C@@H](O)[C@@]12CO	Activity	44.8

====

Assay: Induction of proliferation of neonatal skin fibroblasts assessed as WST-8 formazan accumulation per well at 5 uM after 48 hrs by WST-8 assay relative to control
Format: functional, Homo sapiens, Skin fibroblast
Recorded Activity by entry

compound	readout unit	Activity
CC(=O)O[C@@H]1[C@H](O)[C@@H](O)[C@H](O[C@H]2[C@H](O[C@H]3CC[C@]4(C)[C@H]5CC=C6[C@@H]7CC(C)(C)CC[C@]7(O)C(=O)C[C@@]6(C)[C@]5(C)CC[C@H]4C3(C)C)O[C@H](C(=O)O)[C@@H](O)[C@@H]2O[C@@H]2O[C@H](CO)[C@H](O)[C@H](O)[C@H]2O[C@@H]2O[C@H](CO)[C@@H](O)[C@H](O)[C@H]2O)O[C@@H]1CO [CAMELLIOSIDE B]	%	111.5
CC1(C)CC[C@]2(C=O)[C@H](O)C[C@]3(C)C(=CC[C@@H]4[C@@]5(C)CC[C@H](O[C@@H]6O[C@H](C(=O)O)[C@@H](O)[C@H](O[C@@H]7O[C@H](CO)[C@H](O)[C@H](O)[C@H]7O[C@@H]7O[C@H](CO)[C@@H](O)[C@H](O)[C@H]7O)[C@H]6O[C@@H]6O[C@H](CO)[C@H](O)[C@H](O)[C@H]6O)C(C)(C)[C@@H]5CC[C@]43C)[C@@H]2C1 (relative stereo)	%	102.1
CC1(C)CC[C@]2(O)[C@H](O)C[C@]3(C)C(=CC[C@@H]4[C@@]5(C)CC[C@H](O[C@@H]6O[C@H](C(=O)O)[C@@H](O)[C@H](O[C@@H]7O[C@H](CO)[C@H](O)[C@H](O)[C@H]7O[C@@H]7O[C@H](CO)[C@@H](O)[C@H](O)[C@H]7O)[C@H]6O[C@@H]6O[C@H](CO)[C@H](O)[C@H](O)[C@H]6O)C(C)(C)[C@@H]5CC[C@]43C)[C@@H]2C1 (relative stereo)	%	108.3
